Test system: SCC25 cells
Test: Cell proliferation assay in SCC25 cells, CellTiter-Glo (Example 25)
Type: cell-based, human
Conditions: 1 μM, free uptake, 144 hours
Reported endpoint: cell proliferation (luminescence) % UTC (% UTC)
// units = % UTC; emit number, no label

1198439 (AGTGTATGTCAGAAGA; sugar, 5-methylcytosine, phosphorothioate modifications, further chemistry not given here) [compound 1198439] has a reported cell proliferation (luminescence) % UTC of 22

1198605 (GTAATATTGCAATCTG; modified gapmer, further chemistry not given here) [compound 1198605] has a reported cell proliferation (luminescence) % UTC of 23

1198440 (AAGTGTATGTCAGAAG; cEt, 2'-MOE, 5-methylcytosine, phosphorothioate modifications, further chemistry not given here) [compound 1198440] has a reported cell proliferation (luminescence) % UTC of 22

958499 (ATTAGAGTATGTGGCA; 3-10-3 cEt gapmer, further chemistry not given here) [compound 958499] has a reported cell proliferation (luminescence) % UTC of 25

1198728 (TATTAGAGTATGTGGC; modified gapmer, further chemistry not given here) [compound 1198728] has a reported cell proliferation (luminescence) % UTC of 30

CGCCGATAAGGTACAC (cEt gapmer, phosphorothioate backbone, further chemistry not given here) [ION 792169, reference compound] has a reported cell proliferation (luminescence) % UTC of 100

1198623 (CTAAGTAAGGTTTCCC; modified gapmer, further chemistry not given here) [compound 1198623] has a reported cell proliferation (luminescence) % UTC of 36

1197270 (TTAAAGTGTATGTCAG; cEt gapmer with 2'-OMe nucleoside, phosphorothioate, further chemistry not given here) [compound 1197270] has a reported cell proliferation (luminescence) % UTC of 22

----------
Experiment: Cynomolgus monkey tolerability, pro-inflammatory proteins analysis, Complement C3 and CRP (Example 34)
Format: in vivo
Details: cynomolgus monkeys, 35 mg/kg subcutaneously, day 44
Reported endpoint: CRP
Value and unit, in that order.

1076453 (GTAATATTGCAATCTG; 3-10-3 cEt gapmer, further chemistry not given here) [compound 1076453] has a reported CRP of 1.5 mg/L

1198605 (GTAATATTGCAATCTG; modified gapmer, further chemistry not given here) [compound 1198605] has a reported CRP of 4.2 mg/L

1198439 (AGTGTATGTCAGAAGA; sugar, 5-methylcytosine, phosphorothioate modifications, further chemistry not given here) [compound 1198439] has a reported CRP of 2.9 mg/L

1198623 (CTAAGTAAGGTTTCCC; modified gapmer, further chemistry not given here) [compound 1198623] has a reported CRP of 2.0 mg/L

958499 (ATTAGAGTATGTGGCA; 3-10-3 cEt gapmer, further chemistry not given here) [compound 958499] has a reported CRP of 9.9 mg/L

1197270 (TTAAAGTGTATGTCAG; cEt gapmer with 2'-OMe nucleoside, phosphorothioate, further chemistry not given here) [compound 1197270] has a reported CRP of 9.8 mg/L

1198872 (TGTATGTCAGAAGAGT; chemically modified gapmer, further chemistry not given here) [compound 1198872] has a reported CRP of 1.1 mg/L

----------
Field: YAP1 (% UTC). Provide a value for each of the substances that follow.
Tested on: Yap1 mRNA
Assay: Antisense inhibition of human Yap1 in A-431 cells by cEt gapmers, single dose (Example 3, RTS36584)
Type: cell-based
Conditions: Table 34; Yap1 mRNA as percent of untreated control; 3-10-3 cEt gapmers targeting SEQ ID NO: 1 and 2; single dose
Strand notation (5' to 3'): a small letter for the sugar, then the base; units joined by * are phosphorothioate-linked, units joined directly phosphodiester-linked; [ ] holds rarer units or linkages, { } end groups; capitals alone tell only the bases. k = constrained ethyl (cEt); [5mC] = 5-methylcytosine; d = 2'-deoxy (DNA)
// units = % UTC; emit number, no label

1074420 (kG*kA*kT*dT*d[5mC]*dT*dT*dT*dA*dG*dA*dG*d[5mC]*k[5mC]*kA*kA; antisense) [compound 1074420] has a reported YAP1 (% UTC) of 2

1074452 (kT*kG*kA*d[5mC]*dT*dA*dA*dT*dG*dA*dT*dA*dG*k[5mC]*kA*k[5mC]; antisense) [compound 1074452] has a reported YAP1 (% UTC) of 3

1074196 (antisense kG*k[5mC]*k[5mC]*d[5mC]*dG*dG*dG*dT*d[5mC]*d[5mC]*dG*dG*dA*k[5mC]*kG*kG) [compound 1074196] has a reported YAP1 (% UTC) of 99

1074484 (kT*k[5mC]*kA*d[5mC]*dT*dA*dA*dT*dA*dT*dG*dG*dT*k[5mC]*kA*kT; antisense) [compound 1074484] has a reported YAP1 (% UTC) of 3

1074228 (antisense kG*kA*k[5mC]*dT*dG*dT*d[5mC]*dG*dA*dA*dG*dA*dT*kG*k[5mC]*kT) [compound 1074228] has a reported YAP1 (% UTC) of 17

1075988 (kA*kA*kT*dT*dA*dA*dG*d[5mC]*dT*dT*d[5mC]*dT*d[5mC]*kT*kA*kG; antisense) [compound 1075988] has a reported YAP1 (% UTC) of 90

1074260 (antisense kG*kT*kT*d[5mC]*dA*dT*d[5mC]*dA*dT*dA*dT*dT*d[5mC]*kT*kG*k[5mC]) [compound 1074260] has a reported YAP1 (% UTC) of 48

1074740 (kG*kG*kA*d[5mC]*dT*d[5mC]*dT*dT*dA*dG*dG*dT*d[5mC]*kT*k[5mC]*k[5mC]; antisense) [compound 1074740] has a reported YAP1 (% UTC) of 75

1075444 (antisense kA*kT*kA*dA*dA*dT*d[5mC]*d[5mC]*dT*d[5mC]*dA*dT*dG*kT*kG*kG) [compound 1075444] has a reported YAP1 (% UTC) of 112

1075124 (kG*kT*kA*dA*dA*dA*dA*d[5mC]*d[5mC]*dT*dG*dG*dG*kT*kT*kT; antisense) [compound 1075124] has a reported YAP1 (% UTC) of 58

1074964 (antisense kT*kT*kA*dG*dG*d[5mC]*dA*dA*dG*d[5mC]*dA*dG*d[5mC]*kT*kA*kA) [compound 1074964] has a reported YAP1 (% UTC) of 112

1074772 (kA*kG*kT*dT*dA*dA*dA*dA*dT*d[5mC]*dT*dT*dA*kT*k[5mC]*k[5mC]; antisense) [compound 1074772] has a reported YAP1 (% UTC) of 80

----------
Field: ALP. Provide a value for each of the substances that follow.
Assay: Cynomolgus monkey tolerability, kidney and liver function markers (Example 34)
Conditions: cynomolgus monkeys, 35 mg/kg subcutaneously, day 44
// units = IU/L; emit number, no label

1076453 (GTAATATTGCAATCTG; 3-10-3 cEt gapmer, further chemistry not given here) [compound 1076453] has a reported ALP of 1173

1198831 (CACTTTTACATTAGGA; chemically modified gapmer, further chemistry not given here) [compound 1198831] has a reported ALP of 1096

958499 (ATTAGAGTATGTGGCA; 3-10-3 cEt gapmer, further chemistry not given here) [compound 958499] has a reported ALP of 1449

1198439 (AGTGTATGTCAGAAGA; sugar, 5-methylcytosine, phosphorothioate modifications, further chemistry not given here) [compound 1198439] has a reported ALP of 1298

1198623 (CTAAGTAAGGTTTCCC; modified gapmer, further chemistry not given here) [compound 1198623] has a reported ALP of 916

1197270 (TTAAAGTGTATGTCAG; cEt gapmer with 2'-OMe nucleoside, phosphorothioate, further chemistry not given here) [compound 1197270] has a reported ALP of 1215

----------
Tested on: Yap1 mRNA
Experiment: Antisense inhibition of human Yap1 in SNU-449 cells by modified oligonucleotides, single dose (Example 5, RTS36584)
Assay type: cell-based
Conditions: Table 46; Yap1 mRNA as percent of untreated control, SNU-449 cells, single dose
Strand notation (5' to 3'): a small letter for the sugar, then the base; units joined by * are phosphorothioate-linked, units joined directly phosphodiester-linked; [ ] holds rarer units or linkages, { } end groups; capitals alone tell only the bases. e = 2'-O-(2-methoxyethyl) (MOE); k = constrained ethyl (cEt); [5mC] = 5-methylcytosine; d = 2'-deoxy (DNA)
Reported endpoint: YAP1 (% UT)
// units = % UT; emit number, no label

1198841 (kT*kG*d[5mC]*dT*dT*dT*dG*dG*dA*dA*dG*kA*eT*k[5mC]*eT*kG; antisense) [Compound 1198841] has a reported YAP1 (% UT) of 116

1198823 (kG*kG*dT*dA*dT*dA*dA*d[5mC]*dT*dG*dG*kG*e[5mC]*kA*eA*kA; antisense) [Compound 1198823] has a reported YAP1 (% UT) of 65

1198833 (kA*kG*d[5mC]*dA*d[5mC]*dT*dT*dT*dT*dA*d[5mC]*kA*eT*kT*eA*kG; antisense) [Compound 1198833] has a reported YAP1 (% UT) of 54

1198836 (kG*kG*dA*dA*dG*dA*dT*d[5mC]*dT*dG*dA*kA*eA*k[5mC]*eT*k[5mC]; antisense) [Compound 1198836] has a reported YAP1 (% UT) of 43

1198865 (kA*kA*dT*dA*dT*dT*dG*d[5mC]*dA*dA*dT*k[5mC]*eT*kG*eT*k[5mC]; antisense) [Compound 1198865] has a reported YAP1 (% UT) of 38

1198881 (kT*kA*dA*dG*dG*dT*dT*dT*d[5mC]*d[5mC]*d[5mC]*kA*eG*kA*eT*kT; antisense) [Compound 1198881] has a reported YAP1 (% UT) of 36
